Biological target: T1, Human TNKS2 ARC4 (residues 488-649), wild type (human, UniProt Q9H2K2 488-649)
T1 construct: Tankyrase-2 (TNKS2), human, ankyrin repeat cluster 4, residues 488-649 of NM_025235.2, from the construct pETM30-2-TNKS2 ARC4; Monomeric by SEC-MALS; also called WT ARC4; tankyrase ankyrin repeat cluster 4; source: E. coli BL21-CodonPlus(DE3)-RIL, purified (HisTrap, TEV cleavage, second HisTrap, Superdex 75)
T1 sequence (looked up): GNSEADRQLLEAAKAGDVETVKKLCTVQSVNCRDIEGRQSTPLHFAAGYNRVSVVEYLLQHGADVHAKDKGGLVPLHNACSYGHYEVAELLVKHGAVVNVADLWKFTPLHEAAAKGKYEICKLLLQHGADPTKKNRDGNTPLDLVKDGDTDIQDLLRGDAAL
Test: fluorescence polarisation; carboxyfluorescein-labelled MDC1 TBM1 peptides with TNKS2 ARC4 protein (no-protein wells as baseline); POLARstar Omega plate reader; n = 3 separate experiments in technical duplicate; one-site total binding model, standard errors of the fit
Details: both partners purified
pKd: −log10 of the molar value. 5(6)‑carboxyfluorescein = 5(6)-carboxyfluorescein; βAla = NCCC(=O)O
experimental endpoint: pKd

{"binder": "{5(6)‑carboxyfluorescein-βAla}-QRGEPEGGSQ-NH2 (also called Non-phosphorylated TBM1; source: synthetic peptide (JPT, Berlin; crude stock, greater than 70% pure by HPLC)) [MDC1 TBM1 peptide, non-phosphorylated (5(6)-carboxyfluorescein-βAla-QRGEPEGGSQ-NH2)]", "result": 5.35}
